# Tested on: MOLT-4 leukemia
# Test Protocol: NCI-60 one-dose screen, 48 h (100 = growth as untreated, 0 = no growth, -100 = all killed)
# Settings: 10 µM unless noted
Compounds without any hit were thinned out: in the full panel of roughly 83,000, 20% have a hit.
Response field class: enum, chosen by comparing growth against low group: < 10%; middle group: ≥ 10% and < 60%; high group: ≥ 60%

Record excerpt, results attached:
1. COc1cccc(-c2nn(C)c3sc(C(=O)NCCN4CCN(c5ccccc5F)CC4)cc23)c1 ... low group
2. COc1ccc(Cn2c(Br)c3c(c2Br)-c2nc(NC(=O)c4ccc(OC)cc4)sc2CC3)cc1 ... high group
3. Cc1nn(-c2nc3ccccc3[nH]2)c2c1C(c1ccc(OCC(N)=O)cc1)CC(=O)N2 (stereo not given) ... low group
4. O=C1CCC(N2C(=O)c3cccc(NCCCCCCOc4ccc(Nc5nccc(Nc6ccccc6)n5)cc4)c3C2=O)C(=O)N1 (stereo not given) ... middle group
5. COc1ccc(C2C3=C(COC3=O)N(CCO)c3cc4c(cc32)CCC4)cc1OC (stereo not given) ... middle group

-- ask Classify this molecule: `O=c1oc2ccc(Br)cc2c(=O)n1-c1ccc(F)cc1F`
-- reply middle group

-- ask Classify this molecule: `Nc1ncnc(N)c1NC(=O)c1ccc(OCc2ccccc2)cc1`
-- reply high group

-- ask Classify this molecule: `COC(=O)[C@@H]1CCCN1C(=O)[C@H]1CCCN1C(=O)[C@@H](Cc1c[nH]c2ccccc12)NC(=S)Nc1cc(C(F)(F)F)cc(C(F)(F)F)c1`
-- reply middle group

-- ask Classify this molecule: `Clc1ccc(COc2ccc(Nc3ncnc4onc(-c5ccccc5)c34)cc2)cc1`
-- reply high group

-- ask Classify this molecule: `COc1cc(CNC(=O)Cc2ccccc2)ccc1OCc1cn(-c2ccc(F)cc2)nn1`
-- reply high group

-- ask Classify this molecule: CC(C)CCNCC(O)Cn1c2ccccc2c2ccccc21 (stereo not given)
-- reply low group

-- ask Classify this molecule: `COc1ccc(OC)c(N(CCN2C(=O)c3ccccc3C2=O)C(=O)CCl)c1`
-- reply middle group

-- ask Classify this molecule: COc1ccc(CN2CCCC(C(=O)c3ccc(C(F)(F)F)cc3)C2)c(O)c1 (stereo not given)
-- reply middle group

-- ask Classify this molecule: `COc1cccc(/C=C/C(=O)c2c(C)nc3ccccc3c2/C=C/c2ccccc2)c1OC`
-- reply low group

-- ask Classify this molecule: `O=C(Nc1ccc(N2CCNCC2)cn1)c1[nH]ncc1Nc1ncnc2sccc12`
-- reply low group

-- ask Classify this molecule: `CCOC(=O)c1cc2c(n1Cc1cc(OC)c(OC)c(OC)c1)-c1oncc1CCC2`
-- reply low group

-- ask Classify this molecule: `O=C(NCCCN1CCC(N2CCCCC2)CC1)C1=Cc2cc(Br)ccc2OC1`
-- reply middle group

----------
Reported growth by item:
# Tested on: RPMI-8226 leukemia
# Test Protocol: NCI-60 one-dose screen, 48 h (100 = growth as untreated, 0 = no growth, -100 = all killed)
# Settings: 10 µM unless noted
The panel holds about 83,000 compounds, 20% with a hit somewhere; the sample as a whole holds those more often.
Please reply with the bare figure in % and do not write the unit itself.

1. CN1C(=O)N(C)C2Nn3c(s/c(=C4\C(=O)N(CCc5ccccc5)c5ccccc54)c3=O)=NC21 (stereo unspecified) ... 57.2
2. Cc1c(C(=O)OCCO)cc(-c2ccc(Cl)cc2)n1-c1ccc(Cl)cc1Cl ... 84.9
3. COc1cc(/C=C2\CN(C)C/C(=C\c3cc(CN4CCOCC4)c(O)c(OC)c3)C2=O)cc(CN2CCOCC2)c1O ... 47.7
4. CCOC(=O)C1=C(C)N=c2s/c(=C\c3cc(Cl)ccc3O)c(=O)n2C1c1ccc(OC)cc1 (stereo unspecified) ... 78.6
5. Cn1cc([C@@H]2Nc3ccc4[nH]ncc4c3[C@H]3[C@H]4CCC(C4)[C@H]32)c(C(F)(F)F)n1 ... 46.6

Notebook: `Nc1nonc1-n1nncc1-c1cccnc1` , growth read as 105

Notebook: `c1ccc2c(c1)oc1cc3sccc3nc12` , growth read as 99.4

----------
# Tested on: SNB-75 CNS
# Test Protocol: NCI-60 one-dose screen, 48 h (100 = growth as untreated, 0 = no growth, -100 = all killed)
# Settings: 10 µM unless noted
The panel holds about 83,000 compounds, 20% with a hit somewhere; the sample as a whole holds those more often. The source made the active and inactive calls. Rule for the calls: active = growth percent below 10; inactive = the rest.
Reported growth by item:

Below are worked cases with known answers.
1. Cn1c(C(=O)c2cccc3ccccc23)nc2ccccc21 ... 38.9% (inactive)
2. CCOC(=O)c1c(Cl)c2c(n1Cc1ccccc1)-c1oncc1CCC2 ... 69.1% (inactive)
3. O=Cc1cc2ccccc2nc1Nc1nccs1 ... 79.4% (inactive)
4. COc1cc(C2C(C#N)=C(N)OC3=C2C(=O)c2ccccc2C3=O)cc(OC)c1O (stereo unspecified) ... 4.8% (active)
5. Cc1ccc2sc3c(NCCCNCCO)nc4ccccc4c3c(=O)c2c1 ... 33.3% (inactive)
6. O=C(O)c1cn(C2CC2)c2cc(N3CCN(C(=O)C[n+]4ccccc4)CC3)c(F)cc2c1=O ... 97.2% (inactive)
7. COc1ccc(C2c3ccc4ccccc4c3Oc3ncn(CCCn4ccnc4)c(=N)c32)cc1OC (stereo unspecified) ... 84.4% (inactive)
8. O=c1c2cccc(F)c2sc2c(N3CCNCC3)nc3ccccc3c12 ... 35.3% (inactive)
9. Cc1cccc2c(=O)c3c(sc12)c(NCCN)nc1ccccc13 ... 15.2% (inactive)
10. Cn1c(/C=C(\C#N)c2ccccc2)nc2c(N3CCOCC3)nc(Cl)nc21 ... -94.9% (active)

Shift focus to the following entry.
Notebook: `O=c1oc2ccc(F)cc2c(=O)n1-c1ccc(F)cc1F` , growth read as 2.33% (active)

----------
# System: KM12 colon
# Test Protocol: NCI-60 one-dose screen, 48 h (100 = growth as untreated, 0 = no growth, -100 = all killed)
# Settings: 10 µM unless noted
The panel holds about 83,000 compounds, 20% with a hit somewhere; the sample as a whole holds those more often. Active and inactive are the calls of the source. The calls were made as follows: active = growth percent below 10; inactive = the rest.
Reported growth by item:

1) Clc1ccc(Nc2nnc(-c3ccc4c(c3)OCO4)o2)cc1 ... 99.5% (inactive)
2) COc1cccc(-c2nn(C)c3sc(C(=O)NCCN4CCN(c5ccccc5F)CC4)cc23)c1 ... 54.2% (inactive)
3) O=C1/C(=C\c2ccc[nH]2)c2ccccc2N1c1ccccc1 ... 95.7% (inactive)

Entry `COc1cc(NC(=O)CCSc2nc3ccccc3c(=O)n2CCc2ccccn2)cc(OC)c1OC` : growth on KM12 colon = 99.8% (inactive)

Entry `O=c1c2cc(F)cc(Cl)c2sc2c(Cl)nc3ccccc3c12` : growth on KM12 colon = 101% (inactive)

----------
# Test system: SF-539 CNS
# Test Protocol: NCI-60 one-dose screen, 48 h
# Settings: 10 µM unless noted
Compounds without any hit were thinned out: in the full panel of roughly 83,000, 20% have a hit. Active and inactive are the calls of the source. How the source made its calls: active means growth percent below 10; inactive means the rest.
Response enum: active, inactive

1. COc1ccc(/C=C2\SC(=Nc3ccccc3)NC2=O)cc1 ... active

-- ask What did this assay record as the result for `C[C@@H](C(=O)NCCCC#Cc1cnc(Nc2ccc(C#N)cc2)nc1NC1CC1)N(C)C(=O)/C=C/CN(C)C` ?
-- reply active

-- ask What did this assay record as the result for `Nc1ncnc(N)c1NC(=O)c1ccc(OCc2ccccc2)cc1` ?
-- reply inactive

-- ask What did this assay record as the result for `Oc1[nH]c2ccccc2c1N=Nc1nnc2n1N=C(c1ccccc1)CS2` ?
-- reply inactive

-- ask What did this assay record as the result for COc1ccccc1CNC(=O)C1c2ccccc2C(=O)N(CC(C)C)C1c1cccs1 (stereo unspecified) ?
-- reply inactive

-- ask What did this assay record as the result for `COc1ccccc1C1=C(Br)C(=O)c2nc(C)ccc2C1=O` ?
-- reply inactive

-- ask What did this assay record as the result for Cc1ccc(C2CC(c3ccc(Nc4nc(NCCO)nc(Nc5ccc(Cl)cc5)n4)cc3)=NN2c2cc(Cl)cc(Cl)c2)cc1 (stereo unspecified) ?
-- reply inactive

----------
Reported growth by item:
# Test system: NCI/ADR-RES ovarian
# Test Protocol: NCI-60 one-dose screen, 48 h (100 = growth as untreated, 0 = no growth, -100 = all killed)
# Settings: 10 µM unless noted
Compounds without any hit were thinned out: in the full panel of roughly 83,000, 20% have a hit.
Please reply with the bare figure in % and do not write the unit itself.

1. CCN1C(=O)N(c2ccccc2)C2NN=c3s/c(=C4\C(=O)N(C(C)C)c5ccccc54)c(=O)n3C21 (centres undefined) ... 15.7
2. O=C(CSc1ccc2nnc(-c3cccc(F)c3)n2n1)Nc1ccc2c(c1)OCO2 ... 48.4
3. CCOc1c(Br)cc(C2C(C(=O)OC)=CN(C)C=C2C(=O)OC)cc1OC ... 71
4. CCC1=C[C@@H]2CN(C1)Cc1c([nH]c3ccccc13)[C@@](C(=O)OC)(c1cc3c(cc1OC)N(C)[C@H]1[C@@](O)(C(=O)OC)[C@H](OC(C)=O)[C@]4(CC)[C@@H]5C[C@@H]5CN5CC[C@]31[C@@H]54)C2 ... 1.35
5. O=C(Nc1ccc(F)cc1F)c1cc(Cl)ccc1O ... 7.62
6. CC(C)[C@H](NC(=O)Cn1cc(C(=O)O)nn1)C(=O)O ... 106

Notebook: `COC(=O)c1c2c(c(C)[n+]([O-])c1C)C(=O)C(NCc1ccc(F)c(F)c1)=CC2=O` , growth read as -6.62

Notebook: `CN=c1ccc2nc3ccc(N)cc3sc-2c1` , growth read as 5.34

Notebook: `C[C@@H](C(=O)NCCCC#Cc1cnc(Nc2ccc(C#N)cc2)nc1NC1CC1)N(C)C(=O)/C=C/CN(C)C` , growth read as 78.2
